assay: physchem; settings: 1-octanol/phosphate buffer, pH 7.4
Field: logD. Provide a value for each of the compounds that follow.
Lab note: record the figure alone, no unit after it.

Given Cc1c(C(=O)Nc2nc(C3CCC3)c(N3CCN(C)CC3)s2)cnn1-c1ccc(F)cc1 , respond with its logD. 4.8

Complete the entry with logD for Cc1c(C(=O)Nc2nc(C3CCC3)c(CCN3CCCCC3)s2)cnn1-c1ccc(F)cc1 4.1

Give recorded logD. COc1cc(OC)cc(C(=O)Nc2nc(-c3ccccc3)c(CCCN3CCN(C)CC3)s2)c1 4.1

Given COc1cc(OC)cc(C(=O)Nc2nc(-c3ccccc3)c(CCCN3CCCCC3)s2)c1 , respond with its logD. 4.1

Quick one: give measured logD for Cc1c(C(=O)Nc2nc(C3CCC3)c(N3CCN(C)CC3)s2)cnn1C1CCC(F)(F)CC1 4.3
